// provenance: ChEMBL document CHEMBL1121755

target: Dihydrofolate reductase (Lactobacillus casei) (UniProt P00381)
Sequence (P00381 whole entry): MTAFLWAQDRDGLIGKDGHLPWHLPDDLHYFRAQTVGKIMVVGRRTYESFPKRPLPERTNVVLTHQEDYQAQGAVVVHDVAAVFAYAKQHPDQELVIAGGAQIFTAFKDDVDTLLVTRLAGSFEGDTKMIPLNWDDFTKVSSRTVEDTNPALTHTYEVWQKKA
recorded.conditions: Lacticaseibacillus casei
Description: Inhibitory activity against Lactobacillus casei dihydrofolate reductase (DHFR)
measure.name: log 1/Ki app
Reply briefly: the number, and no unit.

log 1/Ki app reading for CCCCCCCCCCCCCOc1cccc(N2C(N)=NC(N)=NC2(C)C)c1 : 4.81

log 1/Ki app reading for CCCCOc1cccc(N2C(N)=NC(N)=NC2(C)C)c1 : 4.2

log 1/Ki app reading for CC1(C)N=C(N)N=C(N)N1c1cccc(S(=O)(=O)F)c1 : 3.21

log 1/Ki app reading for CCCCCCCCCCCCCCOc1cccc(N2C(N)=NC(N)=NC2(C)C)c1 : 4.5

log 1/Ki app reading for CC1(C)N=C(N)N=C(N)N1c1cccc(OCCCCOc2cccc(C(F)(F)F)c2)c1 : 4.79

log 1/Ki app reading for CC1(C)N=C(N)N=C(N)N1c1cccc(Br)c1 : 3.69

log 1/Ki app reading for CC1(C)N=C(N)N=C(N)N1c1cccc(I)c1 : 3.73

log 1/Ki app reading for CC1(C)N=C(N)N=C(N)N1c1cccc(COc2cccc(NC(N)=O)c2)c1 : 5.36

log 1/Ki app reading for CC1(C)N=C(N)N=C(N)N1c1cccc(COc2ccccc2)c1 : 5.44

log 1/Ki app reading for CCCCCCc1cccc(N2C(N)=NC(N)=NC2(C)C)c1 : 4.96

log 1/Ki app reading for CCOC(=O)c1cccc(N2C(N)=NC(N)=NC2(C)C)c1 : 3.21

log 1/Ki app reading for CC1(C)N=C(N)N=C(N)N1c1cccc(F)c1 : 3.29

log 1/Ki app reading for CC1(C)N=C(N)N=C(N)N1c1cccc(CNc2cc(C(N)=O)cc(C(N)=O)c2)c1 : 4.74

log 1/Ki app reading for CCCCCCCCCOc1cccc(N2C(N)=NC(N)=NC2(C)C)c1 : 4.71

log 1/Ki app reading for CC1(C)N=C(N)N=C(N)N1c1cccc(OCc2ccc(Cl)c(Cl)c2)c1 : 4.41

log 1/Ki app reading for CC1(C)N=C(N)N=C(N)N1c1cccc(OCc2ccccc2)c1 : 4.2

log 1/Ki app reading for CC(=O)Nc1cccc(OCc2cccc(N3C(N)=NC(N)=NC3(C)C)c2)c1 : 5.45

log 1/Ki app reading for CC(C)(C)c1cccc(OCc2cccc(N3C(N)=NC(N)=NC3(C)C)c2)c1 : 5.44

log 1/Ki app reading for Cc1cccc(N2C(N)=NC(N)=NC2(C)C)c1 : 3.07

log 1/Ki app reading for COc1cccc(OCc2cccc(N3C(N)=NC(N)=NC3(C)C)c2)c1 : 5.56

log 1/Ki app reading for CCCCCCCCCCCCOc1cccc(N2C(N)=NC(N)=NC2(C)C)c1 : 4.63

log 1/Ki app reading for CC1(C)N=C(N)N=C(N)N1c1cccc(OCCOc2cccc(C(F)(F)F)c2)c1 : 4.1

log 1/Ki app reading for CC1(C)N=C(N)N=C(N)N1c1cccc(COc2cccc(NC(=N)S)c2)c1 : 4.36

log 1/Ki app reading for CCCCCCCCCCCOc1cccc(N2C(N)=NC(N)=NC2(C)C)c1 : 4.54

---

target: Dihydrofolate reductase (Lactobacillus casei)
recorded.conditions: Lacticaseibacillus casei
measure.name: log 1/Ki app

log 1/Ki app reading for CC(=O)c1cccc(N2C(N)=NC(N)=NC2(C)C)c1 : 2.87

log 1/Ki app reading for CCc1cccc(OCc2cccc(N3C(N)=NC(N)=NC3(C)C)c2)c1 : 5.31

log 1/Ki app reading for CC(C)c1cccc(OCc2cccc(N3C(N)=NC(N)=NC3(C)C)c2)c1 : 5.41

log 1/Ki app reading for CC1(C)N=C(N)N=C(N)N1c1cccc(COc2cccc(C#N)c2)c1 : 5.31

log 1/Ki app reading for CC(C)(C)c1cccc(N2C(N)=NC(N)=NC2(C)C)c1 : 3.2

log 1/Ki app reading for CC1(C)N=C(N)N=C(N)N1c1cccc(COc2cccc(Cl)c2)c1 : 5.41

log 1/Ki app reading for CC1(C)N=C(N)N=C(N)N1c1cccc(COc2cccc(CO)c2)c1 : 5.45

log 1/Ki app reading for CC1(C)N=C(N)N=C(N)N1c1cccc(OCCCCOc2ccccc2)c1 : 4.79

log 1/Ki app reading for Cc1cccc(OCc2cccc(N3C(N)=NC(N)=NC3(C)C)c2)c1 : 5.33

log 1/Ki app reading for CC1(C)N=C(N)N=C(N)N1c1cccc(OCCOc2ccccc2)c1 : 3.74

log 1/Ki app reading for CC1(C)N=C(N)N=C(N)N1c1cccc([N+](=O)[O-])c1 : 3.56
